- target-system: P2Y purinoceptor 1 (Meleagris gallopavo)
- measurement-description: Agonist activity at turkey P2Y purinoceptor 1 expressed in human 1321N1 cells assessed as increase in intracellular calcium concentration by spectrofluorimetry
- Type: functional, cell-based
- reported-conditions: read-out: EC50
result-type: pEC50
A value of pEC50 is the negative decimal logarithm of a concentration given in moles per litre.

Look over these answered cases.
compound	target-system	pEC50
BP(=O)(OC[C@H]1O[C@@H](n2cnc3c(N)ncnc32)[C@H](O)[C@@H]1O)OP(=O)(O)OP(=O)(O)OC[C@H]1O[C@@H](n2cnc3c(N)ncnc32)[C@H](O)[C@@H]1O.CCCCN(CCCC)CCCC.CCCCN(CCCC)CCCC.CCCCN(CCCC)CCCC (stereo in doubt; 10A)	P2Y purinoceptor 1 (Meleagris gallopavo)	6.12
BP(=O)(OC[C@H]1O[C@@H](n2cnc3c(N)ncnc32)[C@H](O)[C@@H]1O)OP(=O)(O)OP(=O)(O)OP(=O)(O)OC[C@H]1O[C@@H](n2cnc3c(N)ncnc32)[C@H](O)[C@@H]1O.CCCCN(CCCC)CCCC.CCCCN(CCCC)CCCC.CCCCN(CCCC)CCCC.CCCCN(CCCC)CCCC (stereo in doubt; 12A)	P2Y purinoceptor 1 (Meleagris gallopavo)	5.83
BP(=O)(OP(=O)(O)OC[C@H]1O[C@@H](n2cnc3c(N)ncnc32)[C@H](O)[C@@H]1O)OP(=O)(O)OP(=O)(O)OC[C@H]1O[C@@H](n2cnc3c(N)ncnc32)[C@H](O)[C@@H]1O.CCCCN(CCCC)CCCC.CCCCN(CCCC)CCCC.CCCCN(CCCC)CCCC.CCCCN(CCCC)CCCC (stereo in doubt; 6A)	P2Y purinoceptor 1 (Meleagris gallopavo)	5.52

Need pEC50, item BP(=O)(OP(=O)(O)OC[C@H]1O[C@@H](n2ccc(=O)[nH]c2=O)[C@H](O)[C@@H]1O)OP(=O)(O)OP(=O)(O)OC[C@H]1O[C@@H](n2cnc3c(N)ncnc32)[C@H](O)[C@@H]1O.CCCCN(CCCC)CCCC.CCCCN(CCCC)CCCC.CCCCN(CCCC)CCCC.CCCCN(CCCC)CCCC (stereo in doubt; 9A) 6.30

Need pEC50, item BP(=O)(OP(=O)(O)OC[C@H]1O[C@@H](n2cnc3c(N)ncnc32)[C@H](O)[C@@H]1O)OP(=O)(O)OP(=O)(O)OC[C@H]1O[C@@H](n2cnc3c(N)ncnc32)[C@H](O)[C@@H]1O.CCCCN(CCCC)CCCC.CCCCN(CCCC)CCCC.CCCCN(CCCC)CCCC.CCCCN(CCCC)CCCC (stereo in doubt; 6B) 5.37

----------
- target-system: P2Y purinoceptor 6 (Rattus norvegicus)
- measurement-description: Antagonist activity at rat P2Y purinoceptor 6 expressed in human 1321N1 cells assessed as inhibition of UDP-induced increase in intracellular calcium concentration by spectrofluorimetry
- Assay type: functional, cell-based
The source made the active and inactive calls. The rule behind the calls is not given here.
result-type: Activity

compound	target-system	measurement
BP(=O)(OP(=O)(O)OC[C@H]1O[C@@H](n2ccc(=O)[nH]c2=O)[C@H](O)[C@@H]1O)OP(=O)(O)OP(=O)(O)OC[C@H]1O[C@@H](n2ccc(=O)[nH]c2=O)[C@H](O)[C@@H]1O.CCCCN(CCCC)CCCC.CCCCN(CCCC)CCCC.CCCCN(CCCC)CCCC.CCCCN(CCCC)CCCC (stereo in doubt; 7B)	P2Y purinoceptor 6 (Rattus norvegicus)	inactive
BP(=O)(OP(=O)(O)OC[C@H]1O[C@@H](n2ccc(=O)[nH]c2=O)[C@H](O)[C@@H]1O)OP(=O)(O)OP(=O)(O)OC[C@H]1O[C@@H](n2cnc3c(N)ncnc32)[C@H](O)[C@@H]1O.CCCCN(CCCC)CCCC.CCCCN(CCCC)CCCC.CCCCN(CCCC)CCCC.CCCCN(CCCC)CCCC (stereo in doubt; 9A)	P2Y purinoceptor 6 (Rattus norvegicus)	inactive
BP(=O)(OP(=O)(O)OC[C@H]1O[C@@H](n2cnc3c(N)ncnc32)[C@H](O)[C@@H]1O)OP(=O)(O)OP(=O)(O)OC[C@H]1O[C@@H](n2cnc3c(N)ncnc32)[C@H](O)[C@@H]1O.CCCCN(CCCC)CCCC.CCCCN(CCCC)CCCC.CCCCN(CCCC)CCCC.CCCCN(CCCC)CCCC (stereo in doubt; 6B)	P2Y purinoceptor 6 (Rattus norvegicus)	inactive
BP(=O)(OC[C@H]1O[C@@H](n2ccc(=O)[nH]c2=O)[C@H](O)[C@@H]1O)OP(=O)(O)OP(=O)(O)OP(=O)(O)OC[C@H]1O[C@@H](n2ccc(=O)[nH]c2=O)[C@H](O)[C@@H]1O.CCCCN(CCCC)CCCC.CCCCN(CCCC)CCCC.CCCCN(CCCC)CCCC.CCCCN(CCCC)CCCC (stereo in doubt; 13A)	P2Y purinoceptor 6 (Rattus norvegicus)	inactive

----------
- target-system: P2Y purinoceptor 1 (Meleagris gallopavo)
- measurement-description: Antagonist activity at turkey P2Y purinoceptor 1 expressed in human 1321N1 cells assessed as inhibition of 2-Sme-ADP-induced increase in intracellular calcium concentration by spectrofluorimetry
- Format: functional, cell-based
Active and inactive are the calls of the source. No cut-off for these calls is given here.

compound	Activity
BP(=O)(OC[C@H]1O[C@@H](n2ccc(=O)[nH]c2=O)[C@H](O)[C@@H]1O)OP(=O)(O)OP(=O)(O)OP(=O)(O)OC[C@H]1O[C@@H](n2ccc(=O)[nH]c2=O)[C@H](O)[C@@H]1O.CCCCN(CCCC)CCCC.CCCCN(CCCC)CCCC.CCCCN(CCCC)CCCC.CCCCN(CCCC)CCCC (stereo in doubt; 13B)	inactive
BP(=O)(OP(=O)(O)OC[C@H]1O[C@@H](n2cnc3c(N)ncnc32)[C@H](O)[C@@H]1O)OP(=O)(O)OP(=O)(O)OC[C@H]1O[C@@H](n2cnc3c(N)ncnc32)[C@H](O)[C@@H]1O.CCCCN(CCCC)CCCC.CCCCN(CCCC)CCCC.CCCCN(CCCC)CCCC.CCCCN(CCCC)CCCC (stereo in doubt; 6B)	inactive

----------
- target-system: P2Y purinoceptor 4 (Homo sapiens, UniProt P51582)
- Sequence (P51582 whole entry): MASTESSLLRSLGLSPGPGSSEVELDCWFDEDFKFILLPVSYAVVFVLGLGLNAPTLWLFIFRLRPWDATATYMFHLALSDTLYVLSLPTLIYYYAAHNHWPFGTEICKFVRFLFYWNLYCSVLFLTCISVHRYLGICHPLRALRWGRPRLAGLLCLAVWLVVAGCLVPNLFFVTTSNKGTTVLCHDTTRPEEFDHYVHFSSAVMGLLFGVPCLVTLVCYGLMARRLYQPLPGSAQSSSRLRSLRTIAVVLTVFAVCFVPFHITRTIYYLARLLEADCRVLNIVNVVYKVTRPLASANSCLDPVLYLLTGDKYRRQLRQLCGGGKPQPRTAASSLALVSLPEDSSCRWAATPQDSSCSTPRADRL
- measurement-description: Agonist activity at human P2Y purinoceptor 4 expressed in human 1321N1 cells assessed as increase in intracellular calcium concentration by spectrofluorimetry
- Type: functional, cell-based
- reported-conditions: 1321-n1

molecule	EC50
BP(=O)(OP(=O)(O)OC[C@H]1O[C@@H](n2cnc3c(N)ncnc32)[C@H](O)[C@@H]1O)OP(=O)(O)OP(=O)(O)OC[C@H]1O[C@@H](n2ccc(=O)[nH]c2=O)[C@H](O)[C@@H]1O.CCCCN(CCCC)CCCC.CCCCN(CCCC)CCCC.CCCCN(CCCC)CCCC.CCCCN(CCCC)CCCC (stereo in doubt; 8A)	Not Active
BP(=O)(OC[C@H]1O[C@@H](n2cnc3c(N)ncnc32)[C@H](O)[C@@H]1O)OP(=O)(O)OP(=O)(O)OC[C@H]1O[C@@H](n2cnc3c(N)ncnc32)[C@H](O)[C@@H]1O.CCCCN(CCCC)CCCC.CCCCN(CCCC)CCCC.CCCCN(CCCC)CCCC (stereo in doubt; 10A)	Not Active

----------
Below, each of the compounds is paired with its reported EC50 value.
- target-system: P2Y purinoceptor 1 (Meleagris gallopavo, UniProt P49652)
- Sequence (P49652 whole entry): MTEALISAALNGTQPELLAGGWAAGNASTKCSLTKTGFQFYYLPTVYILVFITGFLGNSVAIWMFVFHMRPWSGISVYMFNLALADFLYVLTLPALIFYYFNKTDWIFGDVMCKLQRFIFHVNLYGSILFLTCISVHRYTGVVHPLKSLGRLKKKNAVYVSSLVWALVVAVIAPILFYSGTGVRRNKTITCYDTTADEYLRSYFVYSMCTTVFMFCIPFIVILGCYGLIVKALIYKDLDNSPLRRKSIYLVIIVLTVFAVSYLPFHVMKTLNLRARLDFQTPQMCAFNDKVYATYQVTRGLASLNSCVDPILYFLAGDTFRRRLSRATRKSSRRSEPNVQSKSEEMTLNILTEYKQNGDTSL
- measurement-description: Agonist activity at turkey P2Y purinoceptor 1 expressed in human 1321N1 cells assessed as increase in intracellular calcium concentration by spectrofluorimetry
- Format: functional, cell-based
- reported-conditions: read-out: EC50
Write down the numeric answer in nM and omit the unit.

compound	target-system	uom	EC50
BP(=O)(OC[C@H]1O[C@@H](n2cnc3c(N)ncnc32)[C@H](O)[C@@H]1O)OP(=O)(O)OP(=O)(O)OC[C@H]1O[C@@H](n2cnc3c(N)ncnc32)[C@H](O)[C@@H]1O.CCCCN(CCCC)CCCC.CCCCN(CCCC)CCCC.CCCCN(CCCC)CCCC (stereo in doubt; 10B)	P2Y purinoceptor 1 (Meleagris gallopavo, UniProt P49652)	nM	800

Need EC50, item BP(=O)(OP(=O)(O)OC[C@H]1O[C@@H](n2ccc(=O)[nH]c2=O)[C@H](O)[C@@H]1O)OP(=O)(O)OP(=O)(O)OC[C@H]1O[C@@H](n2cnc3c(N)ncnc32)[C@H](O)[C@@H]1O.CCCCN(CCCC)CCCC.CCCCN(CCCC)CCCC.CCCCN(CCCC)CCCC.CCCCN(CCCC)CCCC (stereo in doubt; 9B) 810

----------
- target-system: P2Y purinoceptor 1 (Meleagris gallopavo, UniProt P49652)
- measurement-description: Agonist activity at turkey P2Y purinoceptor 1 expressed in human 1321N1 cells assessed as increase in intracellular calcium concentration by spectrofluorimetry
- Format: functional, cell-based
- reported-conditions: read-out: EC50
Below, each of the compounds is paired with its reported EC50 value.
Write down the numeric answer in µM and omit the unit.

compound	measurement
BP(=O)(OC[C@H]1O[C@@H](n2cnc3c(N)ncnc32)[C@H](O)[C@@H]1O)OP(=O)(O)OP(=O)(O)OP(=O)(O)OC[C@H]1O[C@@H](n2cnc3c(N)ncnc32)[C@H](O)[C@@H]1O.CCCCN(CCCC)CCCC.CCCCN(CCCC)CCCC.CCCCN(CCCC)CCCC.CCCCN(CCCC)CCCC (stereo in doubt; 12B)	6.9

Need EC50, item BP(=O)(OC[C@H]1O[C@@H](n2ccc(=O)[nH]c2=O)[C@H](O)[C@@H]1O)OP(=O)(O)OP(=O)(O)OC[C@H]1O[C@@H](n2ccc(=O)[nH]c2=O)[C@H](O)[C@@H]1O.CCCCN(CCCC)CCCC.CCCCN(CCCC)CCCC.CCCCN(CCCC)CCCC (stereo in doubt; 11A) 4.4

Need EC50, item BP(=O)(OP(=O)(O)OC[C@H]1O[C@@H](n2cnc3c(N)ncnc32)[C@H](O)[C@@H]1O)OP(=O)(O)OP(=O)(O)OC[C@H]1O[C@@H](n2ccc(=O)[nH]c2=O)[C@H](O)[C@@H]1O.CCCCN(CCCC)CCCC.CCCCN(CCCC)CCCC.CCCCN(CCCC)CCCC.CCCCN(CCCC)CCCC (stereo in doubt; 8B) 6.9

This collection of values is drawn from ChEMBL document CHEMBL1949525.
